Tested on: female BALB/C mice
MEASUREMENT_PROTOCOL: In vivo imaging in mice of Fluc-mRNA LNP formulations (mRNA expression and duration)
ASSAY_CONTEXT: 7 d
MEASURED_PARAMETER: expression amount in mice, times that of YK-415

>>> print(df.to_string())
                                   molecule  measured_number
0  CCCCCCCCC(CCCCCCCC)COC(=O)CCCCCN(CCCO)CCN(CCCO)CCCCCC(=O)OCC(CCCCCCCC)CCCCCCCC [YK-422]             2.34
1  CCCCCCCCC(CCCCCCCC)COC(=O)CCCCCN(CCCO)CCCN(CCCO)CCCCCC(=O)OCC(CCCCCCCC)CCCCCCCC [YK-423]             2.50
2  CCCCCCCCC(CCCCCCCC)OC(=O)CCCCCCCN(CCO)CCN(CCO)CCCCCCCC(=O)OC(CCCCCCCC)CCCCCCCC [YK-403]             2.44
3  CCCCCCCCCCCOC(=O)CCCN(CCO)CCN(CCO)CCCCCC(=O)OC(CCCCCCCC)CCCCCCCC [YK-407]            11.98
4  CCCCCCCCC(CCCCCCCC)C(=O)OCCCCCCN(CCO)CCN(CCO)CCCCCCOC(=O)C(CCCCCCCC)CCCCCCCC [YK-402]             2.46
5  CCCCCCCCC(CCCCCCCC)OC(=O)CCCCCN(CCO)CCN(CCO)CCCCCC(=O)OC(CCCCCCCC)CCCCCCCC [YK-401]             2.60
